Test: in vivo
Details: CD1 nude, mouse, 0.5 nmol/mouse, total radioactivity, Muscle uptake
test readout: tissue uptake at 24 h

query: Reported tissue uptake at 24 h for Cc1ccc(CCCC(=O)NCCOCCOCCOCCC(=O)NCCCC[C@H](NC(=O)CN2CCN(CC(=O)O)CCN(CC(=O)O)CCN(CC(=O)O)CC2)C(=O)N[C@@H](CC(=O)O)C(=O)N[C@@H](CC2CCCCC2)C(=O)N[C@@H](Cc2ccccc2)C(=O)N[C@H](CO)C(=O)N[C@H](CCCNC(=N)N)C(=O)N[C@@H](Cc2ccc(O)cc2)C(=O)N[C@@H](CC(C)C)C(=O)N[C@@H](Cc2c[nH]c3ccccc23)C(=O)N[C@@H](CO)C(N)=O)cc1 [[^177Lu]Lu-uPAR-15, metal not drawn] : what is it?
result: 0.05 %ID/g

query: Reported tissue uptake at 24 h for Cc1ccc(CCCC(=O)NCCOCCOCCOCCOCCC(=O)NCCCC[C@H](NC(=O)CN2CCN(CC(=O)O)CCN(CC(=O)O)CCN(CC(=O)O)CC2)C(=O)N[C@@H](CC(=O)O)C(=O)N[C@@H](CC2CCCCC2)C(=O)N[C@@H](Cc2ccccc2)C(=O)N[C@H](CO)C(=O)N[C@H](CCCNC(=N)N)C(=O)N[C@@H](Cc2ccc(O)cc2)C(=O)N[C@@H](CC(C)C)C(=O)N[C@@H](Cc2c[nH]c3ccccc23)C(=O)N[C@@H](CO)C(N)=O)cc1 [[^177Lu]Lu-uPAR-11, metal not drawn] : what is it?
result: 0.05 %ID/g

query: Reported tissue uptake at 24 h for Cc1ccc(CCCC(=O)NCCOCCOCCOCCOCCOCCC(=O)NCCCC[C@H](NC(=O)CN2CCN(CC(=O)O)CCN(CC(=O)O)CCN(CC(=O)O)CC2)C(=O)N[C@@H](CC(=O)O)C(=O)N[C@@H](CC2CCCCC2)C(=O)N[C@@H](Cc2ccccc2)C(=O)N[C@H](CO)C(=O)N[C@H](CCCNC(=N)N)C(=O)N[C@@H](Cc2ccc(O)cc2)C(=O)N[C@@H](CC(C)C)C(=O)N[C@@H](Cc2c[nH]c3ccccc23)C(=O)N[C@@H](CO)C(N)=O)cc1 [[^177Lu]Lu-uPAR-18, metal not drawn] : what is it?
result: 0.06 %ID/g

query: Reported tissue uptake at 24 h for Cc1ccc(CCCC(=O)NCCOCCOCCOCCOCCC(=O)NCCCC[C@H](NC(=O)CC[C@H](C(=O)O)N2CCN(CC(=O)O)CCN(CC(=O)O)CCN(CC(=O)O)CC2)C(=O)N[C@@H](CC(=O)O)C(=O)N[C@@H](CC2CCCCC2)C(=O)N[C@@H](Cc2ccccc2)C(=O)N[C@H](CO)C(=O)N[C@H](CCCNC(=N)N)C(=O)N[C@@H](Cc2ccc(O)cc2)C(=O)N[C@@H](CC(C)C)C(=O)N[C@@H](Cc2c[nH]c3ccccc23)C(=O)N[C@@H](CO)C(N)=O)cc1 [[^177Lu]Lu-uPAR-17, metal not drawn] : what is it?
result: < 0.03 %ID/g

query: Reported tissue uptake at 24 h for Cc1ccc(CCCC(=O)NCCCCCCCC(=O)NCCCC[C@H](NC(=O)CN2CCN(CC(=O)O)CCN(CC(=O)O)CCN(CC(=O)O)CC2)C(=O)N[C@@H](CC(=O)O)C(=O)N[C@@H](CC2CCCCC2)C(=O)N[C@@H](Cc2ccccc2)C(=O)N[C@H](CO)C(=O)N[C@H](CCCNC(=N)N)C(=O)N[C@@H](Cc2ccc(O)cc2)C(=O)N[C@@H](CC(C)C)C(=O)N[C@@H](Cc2c[nH]c3ccccc23)C(=O)N[C@@H](CO)C(N)=O)cc1 [[^177Lu]Lu-uPAR-12, metal not drawn] : what is it?
result: 0.6 %ID/g

query: Reported tissue uptake at 24 h for Cc1ccc(CCCC(=O)NCCOCCOCCOCCOCCC(=O)NC[C@H](NC(=O)CN2CCN(CC(=O)O)CCN(CC(=O)O)CCN(CC(=O)O)CC2)C(=O)N[C@@H](CC(=O)O)C(=O)N[C@@H](CC2CCCCC2)C(=O)N[C@@H](Cc2ccccc2)C(=O)N[C@H](CO)C(=O)N[C@H](CCCNC(=N)N)C(=O)N[C@@H](Cc2ccc(O)cc2)C(=O)N[C@@H](CC(C)C)C(=O)N[C@@H](Cc2c[nH]c3ccccc23)C(=O)N[C@@H](CO)C(N)=O)cc1 [[^177Lu]Lu-uPAR-14, metal not drawn] : what is it?
result: 0.05 %ID/g
